Values compiled from patent US11691971B2.

pIC50: recorded values
- subjectOfTest: pseudo-kinase domain (JH2) of human Wild Type JAK2 (Homo sapiens (Human), UniProt O60674, F794H/W659A/W777A)
- Sequence (O60674 536-812 W659A/W777A/F794H): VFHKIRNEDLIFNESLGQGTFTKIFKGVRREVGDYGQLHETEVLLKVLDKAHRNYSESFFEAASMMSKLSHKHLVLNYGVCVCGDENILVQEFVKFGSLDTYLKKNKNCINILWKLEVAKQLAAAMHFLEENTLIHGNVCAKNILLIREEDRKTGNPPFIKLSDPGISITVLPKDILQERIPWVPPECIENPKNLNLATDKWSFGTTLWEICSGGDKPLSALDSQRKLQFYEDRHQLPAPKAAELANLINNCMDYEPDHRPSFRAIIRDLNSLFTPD
- experimentalDetails: JAK2 LanthaScreen JH2-WT Binding Assay
- details: JAK2 JH2-WT 0.145 nM, 50 nM tracer, 1 hour at 25° C.; read-out: JH2BIND_WT IC50
pIC50: −log10 of the molar value. Structures can show the parent of a compound that is named as a salt.

I have this compound here, COc1c(Nc2cc(NC(=O)C3CC3)nc3cc[nH]c(=O)c23)cccc1C(F)(F)F [Example 14, Trifluoroacetic Acid Salt] , and I need its recorded pIC50.
6.30 to 7.00

Also check COc1c(Nc2cc(NC(=O)C3CC3)nc3cc[nH]c(=O)c23)cccc1-c1cnn(C2CCCC2)c1 [Example 3, Trifluoroacetic Acid Salt]
6.30 to 7.00

Also check COc1c(Nc2cc(NC(=O)C3CC3)nc3cc[nH]c(=O)c23)cccc1-c1cn[nH]c1 [Example 1]
≥ 7.00

Also check O=C(Nc1cc(Nc2cccc(Cl)c2-c2cn[nH]c2)c2c(=O)[nH]ccc2n1)C1CC1 [Example 16, Trifluoroacetic Acid Salt]
6.00 to 6.30

Also check O=C(Nc1cc(Nc2ccccc2CO)c2c(=O)[nH]ccc2n1)C1CC1 [Example 23, Trifluoroacetic Acid Salt]
5.00 to 6.00
